B1: Nuclear receptor subfamily 4 group A member 2, residues 260 to 336; numbered along this chain, P43354 (parent)
chain: EGLCAVCGDNAACQHYGVRTCEGCKGFFKRTVQKNAKYVCLANKNCPVDKRRRNRCQYCRFQKCLAVGMVKEVVRTD

Variants of: B1
Assay: abundance fitness (aPCA) (normalised: wild type 0, dead -1); higher = more abundant; growth selection in yeast, the domain comes from the species named
Details: Homo sapiens
Measured quantity: abundance fitness
Just the number, please.

Sure, the documented abundance fitness for `V70W` is -0.255

Sure, the documented abundance fitness for `G26S` is -0.218

Sure, the documented abundance fitness for `K71E` is -0.046

Sure, the documented abundance fitness for `E72S` is -0.012

Sure, the documented abundance fitness for `G17K` is -0.346

Sure, the documented abundance fitness for `N35A` is 0.011

Sure, the documented abundance fitness for `K63G` is -0.559
